Reference source: patent US4370489A

# System: Setaria
# experiment notes: Post-emergence greenhouse pot trial, Setaria (Example I, Table I)
# Assay type: in vivo
# experimental conditions: greenhouse pots, 0.62 kg/hectare, 4 weeks
measured property: Effect on weed grasses (evaluation scheme number), Setaria

Record CC(C)OC(=O)C(C)Oc1ccc(Oc2ccc(Br)cc2Cl)cc1 (centres unmarked) [Compound 1c] , field Effect on weed grasses (evaluation scheme number), Setaria: 1 (100)

Record CCOC(=O)C(C)Oc1ccc(Oc2ccc(Br)cc2Cl)cc1 (centres unmarked) [Compound 1b] , field Effect on weed grasses (evaluation scheme number), Setaria: 1 (100)

Record COC(=O)C(C)Oc1ccc(Oc2ccc(Cl)cc2Cl)cc1 (centres unmarked) [A, reference compound] , field Effect on weed grasses (evaluation scheme number), Setaria: 2 (97.5 to <100)

Record CCCCOC(=O)C(C)Oc1ccc(Oc2ccc(Br)cc2Cl)cc1 (centres unmarked) [Compound 1d] , field Effect on weed grasses (evaluation scheme number), Setaria: 1 (100)

Record COC(=O)C(C)Oc1ccc(Oc2ccc(Br)cc2Cl)cc1 (centres unmarked) [Compound 1a] , field Effect on weed grasses (evaluation scheme number), Setaria: 1 (100)
